Tested on: human cancer cell lines PC3, U-373MG, BxPC3, LoVo, A549 and MCF-7
Test: MTT test, effect on overall cell growth (mean of six cell lines, examples 27 to 45)
Format: cell-based
Conditions: mean of six cell lines PC3, U-373MG, A549, MCF-7, 72 hours incubation, range of molar concentrations resulting in 50% inhibition of overall tumor cells growth
// values below are reported IC50
RESULT_TYPE: IC50

smiles_representation=COc1ccc(NC(=S)Nc2cccc3cc4cccc5c4c(c23)C(=O)N(CCN(C)C)C5=O)cc1 result_type=IC50 assay_value="> 10 µM"
smiles_representation=CN(C)CCN1C(=O)c2cccc3cc4cccc(NC(=S)Nc5ccc(OC(F)(F)F)cc5)c4c(c23)C1=O result_type=IC50 assay_value="> 10 µM"
smiles_representation=CN(C)CCN1C(=O)c2cccc3cc4cccc(NC(=S)Nc5ccc(C(F)(F)F)cc5)c4c(c23)C1=O result_type=IC50 assay_value="1 to 5 µM"
smiles_representation=CN(C)CCN1C(=O)c2cccc3cc4cccc(NC(=S)NCc5ccco5)c4c(c23)C1=O result_type=IC50 assay_value="1 to 5 µM"
smiles_representation=CC(C)c1ccc(NC(=S)Nc2cccc3cc4cccc5c4c(c23)C(=O)N(CCN(C)C)C5=O)cc1 result_type=IC50 assay_value="> 10 µM"
smiles_representation=CN(C)CCN1C(=O)c2cccc3cc4cccc(NC(=S)Nc5ccc(Br)cc5)c4c(c23)C1=O result_type=IC50 assay_value="> 10 µM"
smiles_representation=CN(C)CCN1C(=O)c2cccc3cc4cccc(NC(=O)OCCCCCl)c4c(c23)C1=O result_type=IC50 assay_value="> 10 µM"
smiles_representation=C=CCNC(=S)Nc1cccc2cc3cccc4c3c(c12)C(=O)N(CCN(C)C)C4=O result_type=IC50 assay_value="> 10 µM"
smiles_representation=CN(C)CCN1C(=O)c2cccc3cc4cccc(NC(=S)Nc5cccnc5)c4c(c23)C1=O result_type=IC50 assay_value="> 10 µM"

Origin of values: patent US7741337B2
